System: Echinochloa crus-galli
Experiment: Herbicidal action pre-emergence (greenhouse pot trial)
Format: in vivo
Conditions: application rate 320 g/ha, scored after about 3 weeks
# Echinochloa crus-galli (Efficacy in %) values compiled below
Give your result in % as a bare value.

The cases that follow already have their Echinochloa crus-galli (Efficacy in %) on record.
CCOCCCOC(=O)C(C)Sc1cc(-n2c(=O)cc(C(F)(F)F)n(C)c2=O)c(F)cc1Cl (stereo not shown) [I.1-27]: 100
CC(Sc1cc(-n2c(=O)cc(C(F)(F)F)n(C)c2=O)c(F)cc1Cl)C(=O)NCC1(C)CCCO1 (stereo not shown) [I.1-224]: 100
CON(C(=O)C(C)Sc1cc(-n2c(=O)cc(C(F)(F)F)n(C)c2=O)c(F)cc1Cl)C1CCOC1 (stereo not shown) [I.1-341]: 100

Tell me the measured Echinochloa crus-galli (Efficacy in %) of COCCOC(=O)CSc1cc(-n2c(=O)cc(C(F)(F)F)n(C)c2=O)c(F)cc1Cl [I.8-1] , please.
100

So what does the record say about Echinochloa crus-galli (Efficacy in %) for Cn1c(C(F)(F)F)cc(=O)n(-c2cc(SCC(=O)NCC3CCCO3)c(Cl)cc2F)c1=O (stereo not shown) [I.8-271] ?
80

Could you tell me which Echinochloa crus-galli (Efficacy in %) is on file for CC(Sc1cc(-n2c(=O)cc(C(F)(F)F)n(C)c2=O)c(F)cc1Cl)C(=O)NCC1CS(=O)(=O)CCO1 (stereo not shown) [I.1-333] ?
100

What does the record list as Echinochloa crus-galli (Efficacy in %) for Cn1c(C(F)(F)F)cc(=O)n(-c2cc(SCC(C)(C)C(=O)OCC3CCOC3)c(Cl)cc2F)c1=O (stereo not shown) [I.48-72] ?
100

Query (compound): CCC(Sc1cc(-n2c(=O)cc(C(F)(F)F)n(C)c2=O)c(F)cc1Cl)C(=O)OCC1CCOC1 (stereo not shown) [I.2-72] ; field requested: Echinochloa crus-galli (Efficacy in %)
100

Using the record for CC(Sc1cc(-n2c(=O)cc(C(F)(F)F)n(C)c2=O)c(F)cc1Cl)C(=O)NC1(C#N)CCSC1 (stereo not shown) [I.1-340] , report its Echinochloa crus-galli (Efficacy in %).
100

What value of measured Echinochloa crus-galli (Efficacy in %) is listed for CC(Sc1cc(-n2c(=O)cc(C(F)(F)F)n(C)c2=O)c(F)cc1Cl)C(=O)OCC1CCCO1 (stereo not shown) [I.1-71] ?
100

---

Tested on: Lolium rigidum
Experiment: Herbicidal action pre-emergence (greenhouse pot trial)
Format: in vivo
Conditions: application rate 320 g/ha
measurement_label: Lolium rigidum (Efficacy in %)
Please reply with the bare figure in % and do not write the unit itself.

C=CCN(C(=O)C(C)Sc1cc(-n2c(=O)cc(C(F)(F)F)n(C)c2=O)c(F)cc1Cl)C(C)COC (stereo not shown): 100

Which Lolium rigidum (Efficacy in %) is reported for this compound? CC1CC(COC(=O)C(C)Sc2cc(-n3c(=O)cc(C(F)(F)F)n(C)c3=O)c(F)cc2Cl)CO1 (stereo not shown)
100

Give the measured Lolium rigidum (Efficacy in %) of COCCOC(=O)CSc1cc(-n2c(=O)cc(C(F)(F)F)n(C)c2=O)c(F)cc1Cl .
90

Given CC(Sc1cc(-n2c(=O)cc(C(F)(F)F)n(C)c2=O)c(F)cc1Cl)C(=O)NCC1CCCO1 (stereo not shown) [I.1-221] , state its recorded Lolium rigidum (Efficacy in %).
100

What does the data say about its Lolium rigidum (Efficacy in %)? Entry: Cn1c(C(F)(F)F)cc(=O)n(-c2cc(SCC(C)(C)C(=O)OCC3CCOC3)c(Cl)cc2F)c1=O (stereo not shown)
80
